Species: Rattus norvegicus
assay method text: Open TG-GATES - Regimen: Single
Type: toxicity, organism-based, Sprague-Dawley
Set-up: regimen Single, gender Male, age 6 weeks
condition: in vivo, po, 0 mg/kg, 6 h, tissue Blood, route gavage, dose level Control
endpoint label: Eos
Number first, unit second.

# input I am curious: what Eos value has been reported for C=C[C@H]1C[N@@]2CC[C@H]1C[C@@H]2[C@@H](O)c1ccnc2ccc(OC)cc12 ?
# output 0.6%

# input I am curious: what Eos value has been reported for COc1ccc([C@@H]2Sc3ccccc3N(CCN(C)C)C(=O)[C@@H]2OC(C)=O)cc1 ?
# output 0.4%

# input I am curious: what Eos value has been reported for O=C(O)c1ccccc1Nc1ccccc1 ?
# output 0.8%

# input I am curious: what Eos value has been reported for CC(S)C(=O)NCC(=O)O (stereo not given) ?
# output 0.2%

# input I am curious: what Eos value has been reported for O=c1ccc2ccccc2o1 ?
# output 0.8%
